System: HCT-116
method_notes: Antiproliferative activity against human HCT116 cells assessed as inhibition of cell proliferation incubated for 72 hrs by conventional ATP quantification method
Type: functional, cell-based
details: HCT-116, 72 h
pIC50: −log10 of the molar value.
readout_label: pIC50

{"columns": ["compound", "assayed_system", "pIC50"],
 "data": [
  ["CC(C)[C@H]1CC[C@@](O)(CO)[C@H]2C(=O)OCC(C(=O)O)=C[C@H]12", "HCT-116", "< 4.49"],
  ["CNC(=O)C1=C[C@@H]2[C@@H](C(C)C)CC[C@@](O)(CO)[C@H]2C(=O)OC1", "HCT-116", "< 4.49"],
  ["C=C(C(=O)O)C1OC(=O)[C@H]2[C@H]1[C@@H](C(C)C)CC[C@@]2(O)CI (some centres undefined)", "HCT-116", "< 5.00"]
]}

Next up:
Challenge: Please report the recorded pIC50 for `COC(=O)C1=C[C@@H]2[C@@H](C(C)C)CC[C@@]3(CO3)[C@H]2C(=O)OC1` .
Response given: 5.66

====

method_notes: Half life in mouse at 1.5 mg/kg, ip by tandem HPLC-mass spectrometry
Type: ADME, organism-based
details: in vivo
readout_label: half-life (min)
Report as a plain number; the unit min is understood.

Challenge: Please report the recorded half-life for `CC(C)[C@H]1CC[C@@]2(CO2)[C@H]2C(=O)OCC(C(=O)O)=C[C@H]12` .
Response given: 6

====

method_notes: AUClast in mouse at 1.5 mg/kg, ip by tandem HPLC-mass spectrometry
Type: ADME, organism-based
Parameters: dose 1.5 mg/kg, route intraperitoneal, time 0 - last
details: in vivo
readout_label: AUC(0-t) (ng·h/mL)
Report as a plain number; the unit ng·h/mL is understood.

Challenge: Please report the recorded AUC(0-t) for `CC(C)[C@H]1CC[C@@]2(CO2)[C@H]2C(=O)OCC(C(=O)O)=C[C@H]12` .
Response given: 78.7

====

Test system: OVCAR-3
method_notes: Antiproliferative activity against human OVCAR3 cells assessed as inhibition of cell proliferation incubated for 72 hrs by conventional ATP quantification method
Format: functional, cell-based
details: OVCAR-3, 72 h
readout_label: pIC50
Keep it numeric: pIC50 is minus log10 of the concentration in mol/L.

{"columns": ["compound_structure", "pIC50"],
 "data": [
  ["COc1cccc2c1C(=O)c1c(O)c3c(c(O)c1C2=O)C[C@@](O)(C(=O)CO)C[C@@H]3O[C@H]1C[C@H](N)[C@H](O)[C@H](C)O1", 7.70]
]}

Challenge: Please report the recorded pIC50 for `CC(C)[C@H]1CC[C@@]2(CO2)[C@H]2C(=O)OCC(C(=O)O)=C[C@H]12` .
Response given: 6.16

====

method_notes: Cmax in mouse at 2.5 mg/kg, po by tandem HPLC-mass spectrometry
Assay type: ADME, organism-based
Parameters: dose 2.5 mg/kg, route oral
details: in vivo
readout_label: Cmax (ng/mL)
Report as a plain number; the unit ng/mL is understood.

Challenge: Please report the recorded Cmax for `CC(C)[C@H]1CC[C@@]2(CO2)[C@H]2C(=O)OCC(C(=O)O)=C[C@H]12` .
Response given: 17

====

IC50 values for the molecules below.
Test system: KM12
method_notes: Antiproliferative activity against human KM12 cells assessed as inhibition of cell proliferation incubated for 72 hrs by conventional ATP quantification method
Format: functional, cell-based
details: KM12, 72 h
Report as a plain number; the unit nM is understood.

{"columns": ["molecule", "IC50 (nM)"],
 "data": [
  ["COc1cccc2c1C(=O)c1c(O)c3c(c(O)c1C2=O)C[C@@](O)(C(=O)CO)C[C@@H]3O[C@H]1C[C@H](N)[C@H](O)[C@H](C)O1 [DOXORUBICIN]", 20]
]}

Next up:
Challenge: Reported IC50 for KM12, given `CC(C)[C@H]1CC[C@@]2(CO2)[C@H]2C(=O)OCC(C(=O)O)=C[C@H]12` ?
Response given: 410

====

method_notes: Tmax in mouse at 2.5 mg/kg, po by tandem HPLC-mass spectrometry
Type: ADME, organism-based
details: in vivo
readout_label: Tmax (min)
Report as a plain number; the unit min is understood.

Challenge: Please report the recorded Tmax for `CC(C)[C@H]1CC[C@@]2(CO2)[C@H]2C(=O)OCC(C(=O)O)=C[C@H]12` .
Response given: 15

====

method_notes: Half life in mouse at 0.5 mg/kg, iv by tandem HPLC-mass spectrometry
Assay type: ADME, organism-based
details: in vivo
readout_label: half-life (min)
Report as a plain number; the unit min is understood.

Challenge: Please report the recorded half-life for `CC(C)[C@H]1CC[C@@]2(CO2)[C@H]2C(=O)OCC(C(=O)O)=C[C@H]12` .
Response given: 2.4

====

method_notes: Antiproliferative activity against human BxPC3 cells assessed as inhibition of cell proliferation incubated for 72 hrs by conventional ATP quantification method
Assay type: functional, cell-based
details: BXPC-3, 72 h
readout_label: IC50 (nM)
Report as a plain number; the unit nM is understood.

Challenge: Please report the recorded IC50 for `CC(C)[C@H]1CC[C@@]2(CO2)[C@H]2C(=O)OCC(C(=O)O)=C[C@H]12` .
Response given: 760

====

pIC50 values for the compounds below.
System: HOP-62
method_notes: Antiproliferative activity against human HOP62 cells assessed as inhibition of cell proliferation incubated for 72 hrs by conventional ATP quantification method
Assay type: functional, cell-based
details: HOP-62, 72 h
Keep it numeric: pIC50 is minus log10 of the concentration in mol/L.

{"columns": ["compound_structure", "observed"],
 "data": [
  ["COc1cccc2c1C(=O)c1c(O)c3c(c(O)c1C2=O)C[C@@](O)(C(=O)CO)C[C@@H]3O[C@H]1C[C@H](N)[C@H](O)[C@H](C)O1", 7.70]
]}

Next up:
Challenge: Please report the recorded pIC50 for `CC(C)[C@H]1CC[C@@]2(CO2)[C@H]2C(=O)OCC(C(=O)O)=C[C@H]12` .
Response given: 6.29

====

Tested on: HCT-116
method_notes: Antiproliferative activity against human HCT116 cells assessed as inhibition of cell proliferation incubated for 72 hrs by conventional ATP quantification method
Format: functional, cell-based
details: HCT-116, 72 h
readout_label: IC50
Write down the value, and be sure its unit follows.

Challenge: Please report the recorded IC50 for `CC(C)[C@H]1CC[C@@]2(CO2)[C@H]2C(=O)OCC(C(=O)O)=C[C@H]12` .
Response given: 930 nM

====

System: A-375
method_notes: Antiproliferative activity against human A375 cells assessed as inhibition of cell proliferation incubated for 24 hrs by conventional ATP quantification method
Format: functional, cell-based
details: A-375, 24 h
readout_label: pIC50
Keep it numeric: pIC50 is minus log10 of the concentration in mol/L.

Challenge: Please report the recorded pIC50 for `CC(C)[C@H]1CC[C@@]2(CO2)[C@H]2C(=O)OCC(C(=O)O)=C[C@H]12` .
Response given: 5.90

====

method_notes: Toxicity in Swiss mouse xenografted with human A549 cells dosed intraperitoneally every day for 5 consecutive days during 2 weeks (q1d5 x 2 schedule)
Type: organism-based
details: in vivo, ip
readout_label: MTD at 336 h
Write down the value, and be sure its unit follows.

Challenge: Please report the recorded MTD at 336 h for `CC(C)[C@H]1CC[C@@]2(CO2)[C@H]2C(=O)OCC(C(=O)O)=C[C@H]12` .
Response given: 1 mg/kg

====

Test system: HCT-116
method_notes: Antiproliferative activity against human HCT116 cells assessed as inhibition of cell proliferation incubated for 72 hrs by conventional ATP quantification method
Assay type: functional, cell-based
details: HCT-116, 72 h
readout_label: pIC50
Keep it numeric: pIC50 is minus log10 of the concentration in mol/L.

# count of solved cases: 5
{"columns": ["compound", "pIC50"],
 "data": [
  ["CC(C)[C@H]1CC[C@@](O)(CI)[C@H]2C(=O)OCC(C(=O)O)=C[C@H]12", 5.67],
  ["CC(C)[C@H]1CC[C@@]2(CO2)[C@H]2C(=O)OCC(C(=O)OCc3ccc(-c4ccc([N+](=O)[O-])cc4)o3)=C[C@H]12", 6.21],
  ["CC(C)[C@H]1CC[C@@]2(CO2)[C@H]2C(=O)OCC(C(=O)OCc3ccc(-c4ccccc4)o3)=C[C@H]12", 6.66],
  ["CC(C)[C@H]1CC[C@@](O)(CCl)[C@H]2C(=O)OCC(C(=O)O)=C[C@H]12 [HEPTELIDIC ACID CHLOROHYDRIN]", 6.66],
  ["CC(C)[C@H]1CC[C@@]2(CO2)[C@H]2C(=O)OCC(C(=O)O)=C[C@H]12", 6.68]
]}

Challenge: Please report the recorded pIC50 for `CC(C)[C@H]1CC[C@@](O)(CCl)[C@H]2C(=O)OCC(C(=O)OCc3ccc(-c4ccccc4)o3)=C[C@H]12` .
Response given: 6.21

Challenge: Please report the recorded pIC50 for `CNC(=O)C1=C[C@@H]2[C@@H](C(C)C)CC[C@@]3(CO3)[C@H]2C(=O)OC1` .
Response given: 5.15
